Catalogue of pest or weed control at 500 g/ha readings, one per entry.
Tested on: Digitaria sanguinalis (DIGSA)
Assay: Post-emergence efficacy, glasshouse spray test
Format: in vivo
Conditions: 312 h, 500 g/Ha, evaluated after 13 days, read-out: Control of weed species DIGSA after post-emergence application (100=total damage to plant; 0=no damage to plant)
Protocol: Seeds of a variety of test species were sown in standard soil in pots. […] The test plants were then grown in a glasshouse under controlled conditions (at 24/16° C., day/night; 14 hours light; 65% humidity) and watered twice daily. After 13 days the test was evaluated (100=total damage to plant; 0=no damage to plant). […]
Counter-ions that a name gives are not always drawn.
Give the value, in units of %, as a plain number.

Find the recorded pest or weed control at 500 g/ha belonging to O=C(C[n+]1ccc(-c2ncccn2)cn1)Nc1nnn[n-]1 [Compound A7] and report it.
30

For Cc1cc(O)c(C(=O)C[n+]2ccc(-c3ncccn3)cn2)c(=O)o1 [Compound A2, trifluoroacetate] , what is its reported pest or weed control at 500 g/ha?
30

For the molecule Cn1nnnc1NC(=O)C[n+]1ccc(-c2ncccn2)cn1 [Compound A6] , what pest or weed control at 500 g/ha is on record?
30

Sample O=C(C[n+]1ccc(-c2ncccn2)cn1)Nc1nccs1 [Compound A4] — what was its pest or weed control at 500 g/ha?
10

State the recorded pest or weed control at 500 g/ha for this entry: Oc1cc(C[n+]2ccc(-c3ncccn3)cn2)on1 [Compound A9, 2,2,2-trifluoroacetate]
40

Which pest or weed control at 500 g/ha is reported for this molecule? Cc1nnc(NC(=O)C[n+]2ccc(-c3ncccn3)cn2)s1 [Compound A3]
0

Need pest or weed control at 500 g/ha of O=C(C[n+]1ccc(-c2ncccn2)cn1)Nc1nncs1 [Compound A5] , thanks.
70

* * *

Listing of recorded pest or weed control at 500 g/ha by entry.
test system: Chenopodium album (CHEAL); experiment: Post-emergence efficacy, glasshouse spray test; assay type: in vivo; settings: 312 h, 500 g/Ha, evaluated after 13 days, read-out: Control of weed species CHEAL after post-emergence application (100=total damage to plant; 0=no damage to plant)
Counter-ions that a name gives are not always drawn.
Your answer should be a plain number; it is taken to be in %.

{"columns": ["compound", "system under test", "value unit", "pest or weed control at 500 g/ha"],
 "data": [
  ["O=C(C[n+]1ccc(-c2ncccn2)cn1)Nc1nnn[n-]1 [Compound A7]", "Chenopodium album (CHEAL)", "%", 90],
  ["Cc1nnc(NC(=O)C[n+]2ccc(-c3ncccn3)cn2)s1 [Compound A3]", "Chenopodium album (CHEAL)", "%", 30],
  ["Cn1nnnc1NC(=O)C[n+]1ccc(-c2ncccn2)cn1 [Compound A6]", "Chenopodium album (CHEAL)", "%", 90],
  ["Oc1cc(C[n+]2ccc(-c3ncccn3)cn2)on1 [Compound A9, 2,2,2-trifluoroacetate]", "Chenopodium album (CHEAL)", "%", 40],
  ["O=C(C[n+]1ccc(-c2ncccn2)cn1)Nc1nccs1 [Compound A4]", "Chenopodium album (CHEAL)", "%", 60],
  ["Cc1cc(O)c(C(=O)C[n+]2ccc(-c3ncccn3)cn2)c(=O)o1 [Compound A2, trifluoroacetate]", "Chenopodium album (CHEAL)", "%", 0]
]}

Please find the next compound below.
Please report the recorded pest or weed control at 500 g/ha for O=C(C[n+]1ccc(-c2ncccn2)cn1)Nc1nncs1 [Compound A5] .
30
